# credit: patent US9718790B2

- target_or_system: human P2X3 receptor (Homo sapiens (Human), UniProt P56373)
- Sequence (P56373 whole entry): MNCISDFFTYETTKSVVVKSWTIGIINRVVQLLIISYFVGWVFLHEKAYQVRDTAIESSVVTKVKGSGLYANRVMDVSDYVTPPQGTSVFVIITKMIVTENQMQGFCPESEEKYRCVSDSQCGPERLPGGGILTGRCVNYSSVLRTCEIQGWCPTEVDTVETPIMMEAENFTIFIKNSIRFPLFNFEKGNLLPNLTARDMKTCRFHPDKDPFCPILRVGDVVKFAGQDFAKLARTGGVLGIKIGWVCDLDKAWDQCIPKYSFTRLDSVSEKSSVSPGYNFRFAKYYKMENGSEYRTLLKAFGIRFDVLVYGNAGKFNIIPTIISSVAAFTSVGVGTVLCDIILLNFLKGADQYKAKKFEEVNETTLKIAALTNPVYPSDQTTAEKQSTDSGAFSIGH
- method_notes: Evaluation of human P2X3 receptor inhibitory activity (Fluo-3 calcium fluorescence, FDSS 3000, ATP stimulation);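 further: stimulus was 50 nM ATP with fluorescence followed for 3 min, and the response per well was peak post-ATP fluorescence divided by the reading at measurement start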
- Format: cell-based
- applied_conditions: human P2X3 receptor, Test Example 1
pIC50: −log10 of the molar value.
property_label: pIC50

compound: N#Cc1cccc(Oc2ccc(/N=c3\[nH]c(=O)n(CCC(=O)O)c(=O)n3Cc3ccc(Cl)cc3)cc2)n1 [Compound I-2667]
readout_relation: =
test_value: 8.00
--
compound: O=C(Cn1c(=O)[nH]/c(=N\c2ccc(Oc3cccnn3)cc2)n(Cc2ccc(Cl)cc2)c1=O)NCCO [Compound I-2691]
readout_relation: =
test_value: 8.10
--
compound: NC(=O)Cn1c(=O)[nH]/c(=N\c2ccc(Oc3ccnnc3)cc2)n(Cc2ccc(Cl)cc2)c1=O [Compound I-2695]
readout_relation: =
test_value: 8.00
--
compound: Cc1nc2ccc(/N=c3\[nH]c(=O)n(CC4COC(C)(C)OC4)c(=O)n3Cc3ccc(Cl)cc3)cc2s1 [Compound I-1542]
readout_relation: =
test_value: 8.40
--
compound: CCn1c(=O)[nH]/c(=N\c2ccc(Oc3cncc(C(=O)OC)n3)cc2)n(Cc2ccc(Cl)cc2)c1=O [Compound I-2270]
readout_relation: >
test_value: 8.40
--
compound: CCn1c(=S)[nH]/c(=N\c2ccc(Oc3cncc(C(=O)O)c3)cc2)n(Cc2ccc(Cl)cc2)c1=O [Compound I-2263]
readout_relation: =
test_value: 8.40
--
compound: CCc1cc2cc(/N=c3\[nH]c(=O)n(C[C@H]4COC(C)(C)O4)c(=O)n3Cc3ccc(Cl)cc3)ccc2o1 [Compound I-2314]
readout_relation: =
test_value: 8.15
--
compound: CCn1c(=O)[nH]/c(=N\c2ccc(Oc3ccc(C(N)=O)c(F)c3)cc2)n(Cc2ccc(Cl)cc2)c1=O [Compound I-2234]
readout_relation: =
test_value: 8.70
--
compound: CC(C)Oc1ccc(/N=c2\[nH]c(=O)n(C(C)(C)CC(=O)O)c(=O)n2Cc2ccc(Cl)cc2)cc1F [Compound I-0830]
readout_relation: =
test_value: 7.05
--
compound: C[C@@H](CO)n1c(=O)[nH]/c(=N\c2ccc(Oc3ccon3)cc2)n(Cc2ccc(Cl)cc2)c1=O [Compound I-2489]
readout_relation: =
test_value: 7.30
--
compound: CNC(=O)c1cc(Oc2ccc(/N=c3\[nH]c(=O)n(C4CC4)c(=O)n3Cc3ccc(Cl)cc3)cc2)ccn1 [Compound I-2309]
readout_relation: =
test_value: 8.70
--
compound: Cn1c(=O)[nH]/c(=N\c2ccc(Oc3nc(C(=O)O)cs3)cc2)n(Cc2ccc(Cl)cc2)c1=O [Compound I-2410]
readout_relation: =
test_value: 7.44
--
compound: Cc1ccc(Cn2c(=O)n(C[C@H](C)C(=O)O)c(=O)[nH]/c2=N\c2ccc(CC(C)(C)O)c(Cl)c2)cc1 [Compound I-1532]
readout_relation: =
test_value: 7.60
--
compound: CCOC(=O)Cn1c(=O)[nH]/c(=N\c2ccc(Oc3ccon3)cc2)n(Cc2ccc(Cl)cc2)c1=O [Compound I-2627]
readout_relation: =
test_value: 8.15
--
compound: COC(=O)[C@@H](C)Cn1c(=O)[nH]/c(=N\c2ccc(OCC(C)C)c(C)c2)n(Cc2ccc(Cl)cc2)c1=O [Compound I-0831]
readout_relation: =
test_value: 7.11
--
compound: CC(CO)(CO)Cn1c(=O)[nH]/c(=N\c2ccc(OCC3CC3)cc2)n(Cc2ccc(F)cc2)c1=O [Compound I-2617]
readout_relation: =
test_value: 7.38
--
compound: CCn1c(=O)[nH]/c(=N\c2ccc(Oc3cc(C(=O)O)n(C)n3)cc2)n(Cc2ccc(Cl)cc2)c1=O [Compound I-2491]
readout_relation: =
test_value: 7.13
--
compound: CNC(=O)Cn1c(=O)[nH]/c(=N\c2ccc(Oc3ccnnc3)cc2)n(Cc2ccc(Cl)cc2)c1=O [Compound I-2696]
readout_relation: =
test_value: 8.10
--
compound: CCn1c(=O)[nH]/c(=N\c2ccc(Oc3cc(C#N)ccn3)cc2)n(Cc2ccc(C)cc2)c1=O [Compound I-2300]
readout_relation: =
test_value: 8.52
--
compound: CCOC(=O)CCn1c(=O)[nH]/c(=N\c2ccc3nc(C)sc3c2)n(Cc2ccc(Cl)cc2)c1=O [Compound I-1518]
readout_relation: =
test_value: 8.70
--
compound: O=C(O)Cn1c(=O)[nH]/c(=N\c2ccc(Oc3ncns3)cc2)n(Cc2ccc(Cl)cc2)c1=O [Compound I-2659]
readout_relation: =
test_value: 6.56
--
compound: CCCOc1ccc(/N=c2\[nH]c(=O)n(C[C@H](C)C(=O)O)c(=O)n2Cc2ccc(C)cc2)cc1Cl [Compound I-0840]
readout_relation: =
test_value: 7.77
--
compound: CCn1c(=O)[nH]/c(=N\c2ccc(Oc3cccc(C(=O)O)c3)cc2)n(C[C@H]2CC[C@H](C)CC2)c1=O [Compound I-2354]
readout_relation: =
test_value: 8.52
--
compound: CC(C)Cc1ccc(/N=c2\[nH]c(=O)n(C[C@H](C)C(=O)O)c(=O)n2Cc2ccc(Cl)cn2)cc1Cl [Compound I-1540]
readout_relation: =
test_value: 7.28
--
compound: Cc1cc(/N=c2\[nH]c(=O)n(C[C@H](C)C(=O)O)c(=O)n2Cc2ccc(Cl)cc2)cnc1OC1CCC1 [Compound I-1483]
readout_relation: =
test_value: 7.06
--
compound: CCn1c(=O)[nH]/c(=N\c2ccc(Oc3ccncc3)cc2)n(Cc2ccc(C)cc2)c1=O [Compound I-2573]
readout_relation: =
test_value: 8.22
--
compound: CC[C@@H](C)Oc1ccc(/N=c2\[nH]c(=O)n(C[C@H](C)C(=O)OC)c(=O)n2Cc2ccc(C)cc2)cc1C [Compound I-0823]
readout_relation: =
test_value: 7.96
